From: the RNAGym collection of RNA variant scans (doi:10.1038/nmeth.2970)

B1: NELF-E aptamer (parent)
chain: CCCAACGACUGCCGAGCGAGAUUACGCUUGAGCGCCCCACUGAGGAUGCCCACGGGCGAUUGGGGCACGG

- Variants of: B1
- Test Description: HiTS-RAP
- Measurement Context: with NELF-E (Drosophila)
I'd be grateful if you could share measured pKd for these entries.
Give only the number. pKd is defined as minus log10 of concentration in molar units.

Reported pKd of A5U G65U : 8.07

Reported pKd of C6U A19G : 8.22

Reported pKd of U10G C13A : 8.24

Reported pKd of C13G G30A : 8.31

Reported pKd of U41G C53U : 8.44

Reported pKd of A15U G20U : 8.11

Reported pKd of G11U C51U : 8.18

Reported pKd of G14U G65U : 8.06

Reported pKd of `A52U` : 7.81

Reported pKd of A8U A21G : 8.22

Reported pKd of U10G A15C : 8.42

Reported pKd of A5G G26A : 8.28

Reported pKd of G16U G34A : 8.04

Reported pKd of G16U A21G : 8.28

Reported pKd of `C36U` : 8.20

Reported pKd of A52U G56A : 7.00

Reported pKd of A4U C50U : 7.90

Reported pKd of G14A C17U : 8.25

Reported pKd of U29G C35U : 7.77

Reported pKd of U23G C37U : 7.86

Reported pKd of U10A G16U : 8.23

Reported pKd of G14A A67G : 8.26
